The values you see were collected from paper PMC9154192.

# Test system: Enterobacter aerogenes
# protocol: Broth dilution MIC (CLSI)
# Format: cell-based
# particulars: Klebsiella aerogenes; Enterobacter aerogenes; read-out: MIC
observable: MIC

molecule NNC(=O)c1ccncc1 [INH, isoniazid, reference compound] , MIC observed: > 100 mg/L

Consider "COC(=O)[C@@H]1CCC(=O)N1Cc1cc2ccc(OC)cc2c2cc(OC)c(OC)cc12" . Its measured MIC is > 100 mg/L

What the record says about "[H]/N=C(/N)N[C@H]1[C@H](O)[C@@H](O)[C@H](O[C@@H]2O[C@@H](C)[C@](O)(C=O)[C@H]2O[C@@H]2O[C@@H](CO)[C@H](O)[C@@H](O)[C@@H]2NC)[C@@H](N/C(N)=N\[H])[C@@H]1O" : MIC is 3.1 mg/L

Looking up "COC(=O)[C@@H]1CCC(=O)N1Cc1cc2ccc(OCc3ccccc3)cc2c2cc(OC)c(OC)cc12" , I see its MIC listed as > 100 mg/L

Reported MIC of "CCCCOc1ccc2cc(CN3C(=O)CC[C@H]3C(=O)OC)c3cc(OC)c(OC)cc3c2c1" : > 100 mg/L

----------
# Tested on: Klebsiella pneumoniae
# protocol: Broth dilution MIC (CLSI)
# Format: cell-based
# particulars: read-out: MIC
So I've got a bunch of compounds here, and I need their MIC values.

The reported value for CCCCOc1ccc2cc(CN3C(=O)CC[C@H]3C(=O)OC)c3cc(OC)c(OC)cc3c2c1 [PP2S] in terms of MIC is > 100 µg/mL

Kindly note the recorded MIC for [H]/N=C(/N)N[C@H]1[C@H](O)[C@@H](O)[C@H](O[C@@H]2O[C@@H](C)[C@](O)(C=O)[C@H]2O[C@@H]2O[C@@H](CO)[C@H](O)[C@@H](O)[C@@H]2NC)[C@@H](N/C(N)=N\[H])[C@@H]1O [STR, streptomycin] , which is 3.1 µg/mL

Query COC(=O)[C@@H]1CCC(=O)N1Cc1cc2ccc(OC)cc2c2cc(OC)c(OC)cc12 [PP1S] yields MIC of > 100 µg/mL

Reported MIC of NNC(=O)c1ccncc1 [INH, isoniazid, reference compound] : > 100 µg/mL

The recorded MIC for COC(=O)[C@@H]1CCC(=O)N1Cc1cc2ccc(OCc3ccccc3)cc2c2cc(OC)c(OC)cc12 [PP3S] is > 100 µg/mL

----------
Kindly supply the reported MIC values for the records listed here.
# System: M. szulgai
# protocol: microbe, parasite or virus in culture
# Format: cell-based
# particulars: Mycobacterium szulgai

MIC on M. szulgai for NC(=O)c1cnccn1 [PZA, pyrazinamide] is > 100 mg/L

Entry "CC[C@@H](CO)NCCN[C@@H](CC)CO" , tested on M. szulgai, has a reported MIC of 3.1 mg/L

Record CO[C@H]1/C=C/O[C@@]2(C)Oc3c(C)c(O)c4c(O)c(c(/C=N/N5CCN(C)CC5)c(O)c4c3C2=O)NC(=O)/C(C)=C\C=C\[C@H](C)[C@H](O)[C@@H](C)[C@@H](O)[C@@H](C)[C@H](OC(C)=O)[C@@H]1C [RIF, rifampicin, reference compound] / M. szulgai, MIC recorded as < 0.1 mg/L

Entry "CCCCOc1ccc2cc(CN3C(=O)CC[C@H]3C(=O)OC)c3cc(OC)c(OC)cc3c2c1" ; assay system M. szulgai; MIC recorded at > 100 mg/L

MIC of "[H]/N=C(/N)N[C@H]1[C@H](O)[C@@H](O)[C@H](O[C@@H]2O[C@@H](C)[C@](O)(C=O)[C@H]2O[C@@H]2O[C@@H](CO)[C@H](O)[C@@H](O)[C@@H]2NC)[C@@H](N/C(N)=N\[H])[C@@H]1O" , assay on M. szulgai, is 0.2 mg/L

I looked up "COC(=O)[C@@H]1CCC(=O)N1Cc1cc2ccc(OCc3ccccc3)cc2c2cc(OC)c(OC)cc12" and its MIC for M. szulgai was > 100 mg/L

# MIC measured on M. szulgai for item NNC(=O)c1ccncc1 [INH, isoniazid, reference compound] = 1.6 mg/L

The measured MIC that "COC(=O)[C@@H]1CCC(=O)N1Cc1cc2ccc(OC)cc2c2cc(OC)c(OC)cc12" showed for M. szulgai is > 100 mg/L

----------
For each of the compounds below, state its MIC.
# Tested on: Shigella boydii
# protocol: Broth dilution MIC (CLSI)
# Format: cell-based
# particulars: read-out: MIC

Reported MIC of "COC(=O)[C@@H]1CCC(=O)N1Cc1cc2ccc(OCc3ccccc3)cc2c2cc(OC)c(OC)cc12" : > 100 µg/mL

Record summary for NNC(=O)c1ccncc1 [INH, isoniazid, reference compound] : reported MIC = > 100 µg/mL

The recorded MIC for "CCCCOc1ccc2cc(CN3C(=O)CC[C@H]3C(=O)OC)c3cc(OC)c(OC)cc3c2c1" is > 100 µg/mL

Please fill in: MIC reported for "[H]/N=C(/N)N[C@H]1[C@H](O)[C@@H](O)[C@H](O[C@@H]2O[C@@H](C)[C@](O)(C=O)[C@H]2O[C@@H]2O[C@@H](CO)[C@H](O)[C@@H](O)[C@@H]2NC)[C@@H](N/C(N)=N\[H])[C@@H]1O" = 25 µg/mL

The compound "COC(=O)[C@@H]1CCC(=O)N1Cc1cc2ccc(OC)cc2c2cc(OC)c(OC)cc12" showed MIC equal to > 100 µg/mL

----------
# System: M. tuberculosis H37Rv
# protocol: microbe, parasite or virus in culture
# Type: cell-based, Mycobacterium tuberculosis
observable: MIC (µg/mL)
Quick note: give the figure in µg/mL, leave out the unit.

The measured MIC associated with "CCCCOc1ccc(/C=C(/C(=O)OC)c2ccc(OC)c(OC)c2)cc1" reads 25

get_value(item= "COC(=O)/C(=C/c1ccc(OCc2ccccc2)cc1)c1ccc(OC)c(OC)c1" , readout=MIC) returns 3.1

MIC reading for "CCCCOc1ccc2cc(CN3C(=O)CC[C@H]3C(=O)OC)c3cc(OC)c(OC)cc3c2c1" : 0.4

----------
# protocol: in vitro
# Type: cell-based, murine
# particulars: mouse, Raw264.7
observable: CC50

Entry CCCCOc1ccc2cc(CN3C(=O)CC[C@H]3C(=O)OC)c3cc(OC)c(OC)cc3c2c1 [PP2S] — recorded CC50 = > 500 µg/mL

What the record says about CO[C@H]1/C=C/O[C@@]2(C)Oc3c(C)c(O)c4c(O)c(c(/C=N/N5CCN(C)CC5)c(O)c4c3C2=O)NC(=O)/C(C)=C\C=C\[C@H](C)[C@H](O)[C@@H](C)[C@@H](O)[C@@H](C)[C@H](OC(C)=O)[C@@H]1C [RIF, rifampicin, reference compound] : CC50 is > 500 µg/mL

response.value for NNC(=O)c1ccncc1 [INH, isoniazid, reference compound] (field: CC50) = > 500 µg/mL

CC50 in this record for COC(=O)[C@@H]1CCC(=O)N1Cc1cc2ccc(OC)cc2c2cc(OC)c(OC)cc12 [PP1S] : > 500 µg/mL

# CC50 (compound: COC(=O)[C@@H]1CCC(=O)N1Cc1cc2ccc(OCc3ccccc3)cc2c2cc(OC)c(OC)cc12 [PP3S] ) is > 500 µg/mL

----------
Consider the following molecules; for each one, report its MIC.
# Tested on: M. heraklionease
# protocol: microbe, parasite or virus in culture
# Format: cell-based
# particulars: Mycobacterium

Form: item CO[C@H]1/C=C/O[C@@]2(C)Oc3c(C)c(O)c4c(O)c(c(/C=N/N5CCN(C)CC5)c(O)c4c3C2=O)NC(=O)/C(C)=C\C=C\[C@H](C)[C@H](O)[C@@H](C)[C@@H](O)[C@@H](C)[C@H](OC(C)=O)[C@@H]1C [RIF, rifampicin, reference compound] ; test system M. heraklionease; MIC: 0.2 µg/mL

For CCCCOc1ccc2cc(CN3C(=O)CC[C@H]3C(=O)OC)c3cc(OC)c(OC)cc3c2c1 [PP2S] on M. heraklionease, measured MIC was > 100 µg/mL

Record NNC(=O)c1ccncc1 [INH, isoniazid, reference compound] has M. heraklionease MIC equal to > 100 µg/mL

Record COC(=O)[C@@H]1CCC(=O)N1Cc1cc2ccc(OCc3ccccc3)cc2c2cc(OC)c(OC)cc12 [PP3S] ; system M. heraklionease; MIC = > 100 µg/mL

Log: M. heraklionease, molecule CC[C@@H](CO)NCCN[C@@H](CC)CO [EMB, ethambutol] , MIC = 100 µg/mL

NC(=O)c1cnccn1 [PZA, pyrazinamide] on M. heraklionease gives MIC = > 100 µg/mL

Item [H]/N=C(/N)N[C@H]1[C@H](O)[C@@H](O)[C@H](O[C@@H]2O[C@@H](C)[C@](O)(C=O)[C@H]2O[C@@H]2O[C@@H](CO)[C@H](O)[C@@H](O)[C@@H]2NC)[C@@H](N/C(N)=N\[H])[C@@H]1O [STR, streptomycin] ; assay system M. heraklionease; MIC reported as 50 µg/mL

Recorded MIC for COC(=O)[C@@H]1CCC(=O)N1Cc1cc2ccc(OC)cc2c2cc(OC)c(OC)cc12 [PP1S] on M. heraklionease was > 100 µg/mL
